Where do these numbers come from? They come from patent US6706663B2.

test system: TRZAWR (Wheat, Winter, cv Riband); experiment: Postemergence herbicidal evaluation; assay type: in vivo, Triticum aestivum; conditions: postemergence, rate 0.0320 kg/ha
Param label: returns true when TRZAWR herbicidal rating < 4, returns false otherwise, including exact equality.

- compound: "Cn1c(C(F)(F)F)cc(=O)n(-c2ccc3snc(C4OCC(CO)O4)c3c2)c1=O (stereo not shown)"
  label.class: "true"
- compound: "CSCC1COC(c2nsc3ccc(-n4c(=O)cc(C(F)(F)F)n(C)c4=O)cc23)O1 (stereo not shown)"
  label.class: "false"
- compound: "Cn1c(C(F)(F)F)cc(=O)n(-c2ccc3snc(C4OCC(CS(C)(=O)=O)O4)c3c2)c1=O (single isomer, unassigned)"
  label.class: "true"

input: Dear colleague, could you confirm whether TRZAWR herbicidal rating of Cn1c(C(F)(F)F)cc(=O)n(-c2cc3c(C4OCCO4)nsc3cc2F)c1=O falls below 4? Thanks.
output: false

input: Dear colleague, could you confirm whether TRZAWR herbicidal rating of Cn1c(C(F)(F)F)cc(=O)n(-c2ccc3snc(-c4ccoc4)c3c2)c1=O falls below 4? Thanks.
output: true

input: Dear colleague, could you confirm whether TRZAWR herbicidal rating of Cn1c(C(F)(F)F)cc(=O)n(-c2ccc3snc(C4OCC5(CO4)CO5)c3c2)c1=O (stereo not shown) falls below 4? Thanks.
output: false

input: Dear colleague, could you confirm whether TRZAWR herbicidal rating of Cc1cnn(-c2nsc3ccc(-n4c(=O)cc(C(F)(F)F)n(C)c4=O)cc23)c1 falls below 4? Thanks.
output: true

input: Dear colleague, could you confirm whether TRZAWR herbicidal rating of Cn1c(C(F)(F)F)cc(=O)n(-c2ccc3snc(C4=NCCO4)c3c2)c1=O falls below 4? Thanks.
output: true

input: Dear colleague, could you confirm whether TRZAWR herbicidal rating of Cn1c(C(F)(F)F)cc(=O)n(-c2ccc3snc(-c4nccs4)c3c2)c1=O falls below 4? Thanks.
output: true

input: Dear colleague, could you confirm whether TRZAWR herbicidal rating of Cn1c(C(F)(F)F)cc(=O)n(-c2ccc3snc(C4(C)OCCO4)c3c2)c1=O falls below 4? Thanks.
output: false

input: Dear colleague, could you confirm whether TRZAWR herbicidal rating of CC1COC(c2nsc3ccc(-n4c(=O)cc(C(F)(F)F)n(C)c4=O)cc23)O1 (stereo not shown) falls below 4? Thanks.
output: false
